The values you see were collected from patent US7795457B2.

- Tested on: SKNSH
- test_details: Inhibition of tumor cell proliferation, SKNSH
- Type: cell-based
- setup_conditions: Homo sapiens, SK-N-SH, 72 h, read-out: IC50, nM, SKNSH
quantity_measured: IC50 (nM)
One number for each entry, in nM.

CC(=C/[C@H](C)C/C=C/C(C)=C/[C@@H](C)C(=O)[C@@H](C)[C@H](O)[C@@H](C)C/C(C)=C/COC(=O)NCc1ccccc1)/C=C/[C@H]1CC=CC(=O)O1 | 1.5

Now examine the next entry.
Sample CCC(=C/[C@H](C)C/C=C/C(C)=C/[C@@H](C)C(=O)[C@@H](C)[C@H](O)[C@@H](C)C/C(C)=C/C(=O)NCCc1cccnc1)/C=C/[C@@H]1OC(=O)C=C[C@@H]1C [VI, reference compound] , system: SKNSH. Its IC50 is 0.5

----------
Field: IC50. Provide a value for each of the compounds that follow.
- Test system: UM-UC-3
- test_details: Inhibition of tumor cell proliferation, UM-UC-3
- Format: cell-based
- setup_conditions: Homo sapiens, UMUC3, 72 h, read-out: IC50, nM, UM-UC-3
Numbers only, in nM.

Look up IC50 for the entries below, preserving their order.
1. CCC(=C/[C@H](C)C/C=C/C(C)=C/[C@@H](C)C(=O)[C@@H](C)[C@H](O)[C@@H](C)C/C(C)=C/C(=O)NCCc1cccnc1)/C=C/[C@@H]1OC(=O)C=C[C@@H]1C [VI, reference compound]
2. CC(=C/[C@H](C)C/C=C/C(C)=C/[C@@H](C)C(=O)[C@@H](C)[C@H](OC(N)=O)[C@@H](C)C/C(C)=C/COC(N)=O)/C=C/[C@H]1CC=CC(=O)O1 [Compound A-4]

[0.3, 1.4]

----------
- Test system: BT474
- test_details: Inhibition of tumor cell proliferation, BT474
- Format: cell-based
- setup_conditions: Homo sapiens, BT-474; exposure time 72 h
quantity_measured: IC50 (nM)
Answers are plain numbers, in nM.

CC(=C/[C@H](C)C/C=C/C(C)=C/[C@@H](C)C(=O)[C@@H](C)[C@H](OC(N)=O)[C@@H](C)C/C(C)=C/COC(N)=O)/C=C/[C@H]1CC=CC(=O)O1 | 2.3

# IC50 (molecule: CCC(=C/[C@H](C)C/C=C/C(C)=C/[C@@H](C)C(=O)[C@@H](C)[C@H](O)[C@@H](C)C/C(C)=C/C(=O)NCCc1cccnc1)/C=C/[C@@H]1OC(=O)C=C[C@@H]1C [VI, reference compound] ) is 0.8

----------
- System: LoVo
- test_details: Inhibition of tumor cell proliferation, LoVo
- Assay type: cell-based
- setup_conditions: Homo sapiens, exposure time 1 h
quantity_measured: IC50 (nM)
Give bare numbers, in nM.

CCC(=C/[C@H](C)C/C=C/C(C)=C/[C@@H](C)C(=O)[C@@H](C)[C@H](O)[C@@H](C)C/C(C)=C/C(=O)NCCc1cccnc1)/C=C/[C@@H]1OC(=O)C=C[C@@H]1C [VI, reference compound] | 2.5

Now for another entry.
Reported IC50 of CC(=C/[C@H](C)C/C=C/C(C)=C/[C@@H](C)C(=O)[C@@H](C)[C@H](O)[C@@H](C)C/C(C)=C/COC(=O)NCc1ccccc1)/C=C/[C@H]1CC=CC(=O)O1 : 10.3

----------
- Tested on: A549
- test_details: Inhibition of tumor cell proliferation, A549
- Format: cell-based
- setup_conditions: Homo sapiens, A549, 72 h, read-out: IC50, nM, A549
- Experimental: The biological activity of compounds of this invention was evaluated by measuring their inhibitory effect on the proliferation of various tumor cell lines. HCT-116 is a human colon cancer cell line. LNCap is a human prostate cancer cell line. SiHa is an HPV-16 positive human cervical cancer line. Table D presents additional data for the activity of compounds A-1 and A-4 against various cell lines. […]
quantity_measured: IC50 (nM)
One number for each entry, in nM.

Record for CCC(=C/[C@H](C)C/C=C/C(C)=C/[C@@H](C)C(=O)[C@@H](C)[C@H](O)[C@@H](C)C/C(C)=C/C(=O)NCCc1cccnc1)/C=C/[C@@H]1OC(=O)C=C[C@@H]1C [VI, reference compound] under target or system A549: IC50 reported as 3

----------
- System: LS513
- test_details: Inhibition of tumor cell proliferation, LS513
- Type: cell-based
- setup_conditions: Homo sapiens, LS-513; exposure time 1 h
Would you kindly list IC50 for each of these compounds?
One number for each entry, in nM.

CC(=C/[C@H](C)C/C=C/C(C)=C/[C@@H](C)C(=O)[C@@H](C)[C@H](OC(N)=O)[C@@H](C)C/C(C)=C/COC(N)=O)/C=C/[C@H]1CC=CC(=O)O1 | 6.3

Could you now consider this next compound?
IC50 for LS513 with input CCC(=C/[C@H](C)C/C=C/C(C)=C/[C@@H](C)C(=O)[C@@H](C)[C@H](O)[C@@H](C)C/C(C)=C/C(=O)NCCc1cccnc1)/C=C/[C@@H]1OC(=O)C=C[C@@H]1C [VI, reference compound] equals 5.5

----------
Would you mind telling me the reported IC50 of each entry?
- System: FaDu
- test_details: Inhibition of tumor cell proliferation, FaDu
- Format: cell-based
- setup_conditions: Homo sapiens, exposure time 72 h
Give bare numbers, in nM.

CC(=C/[C@H](C)C/C=C/C(C)=C/[C@@H](C)C(=O)[C@@H](C)[C@H](OC(N)=O)[C@@H](C)C/C(C)=C/COC(N)=O)/C=C/[C@H]1CC=CC(=O)O1 [Compound A-4] | 1.6

Please turn your attention to the following entry.
Entry under test: CCC(=C/[C@H](C)C/C=C/C(C)=C/[C@@H](C)C(=O)[C@@H](C)[C@H](O)[C@@H](C)C/C(C)=C/C(=O)NCCc1cccnc1)/C=C/[C@@H]1OC(=O)C=C[C@@H]1C [VI, reference compound] . Its IC50 was 1

----------
- Test system: NCI-H358
- test_details: Inhibition of tumor cell proliferation, NCI-H358
- Assay type: cell-based
- setup_conditions: Homo sapiens, exposure time 72 h
Record form. Attribute: IC50. Fill in for each entry.
Give bare numbers, in nM.

Give IC50 for all molecules that follow.
1. CCC(=C/[C@H](C)C/C=C/C(C)=C/[C@@H](C)C(=O)[C@@H](C)[C@H](O)[C@@H](C)C/C(C)=C/C(=O)NCCc1cccnc1)/C=C/[C@@H]1OC(=O)C=C[C@@H]1C [VI, reference compound]
2. CC(=C/[C@H](C)C/C=C/C(C)=C/[C@@H](C)C(=O)[C@@H](C)[C@H](OC(N)=O)[C@@H](C)C/C(C)=C/COC(N)=O)/C=C/[C@H]1CC=CC(=O)O1

[0.4, 0.7]

----------
- Test system: LNCap
- test_details: Inhibition of tumor cell proliferation, LNCap
- Assay type: cell-based, human
- setup_conditions: Homo sapiens, LNCaP; exposure time to compound 72 h; read-out: Cancer Cell Line (IC50, nM) LNCap
quantity_measured: IC50 (nM)
Give bare numbers, in nM.

IC50 measured on CCC(=C/[C@H](C)C/C=C/C(C)=C/[C@@H](C)C(=O)[C@@H](C)[C@H](O)[C@@H](C)C/C(C)=C/C(=O)O)/C=C/[C@@H]1OC(=O)C=C[C@@H]1C [Leptomycin B, reference compound] = 0.3

----------
- System: MDA-MB-468
- test_details: Inhibition of tumor cell proliferation, MDA-MB-468
- Type: cell-based
- setup_conditions: Homo sapiens, exposure time 1 h
quantity_measured: IC50

Entry CC(=C/[C@H](C)C/C=C/C(C)=C/[C@@H](C)C(=O)[C@@H](C)[C@H](O)[C@@H](C)C/C(C)=C/COC(=O)NCc1ccccc1)/C=C/[C@H]1CC=CC(=O)O1 — recorded IC50 = 30.6 nM

----------
- Test system: SKNSH
- test_details: Inhibition of tumor cell proliferation, SKNSH
- Type: cell-based
- setup_conditions: Homo sapiens, SK-N-SH; exposure time 1 h; read-out: IC50, nM, SKNSH
quantity_measured: IC50 (nM)
One number for each entry, in nM.

The recorded IC50 with SKNSH for CCC(=C/[C@H](C)C/C=C/C(C)=C/[C@@H](C)C(=O)[C@@H](C)[C@H](O)[C@@H](C)C/C(C)=C/C(=O)O)/C=C/[C@@H]1OC(=O)C=C[C@@H]1C [Leptomycin B, reference compound] was 4.1

----------
- Tested on: HCT-116
- test_details: Inhibition of tumor cell proliferation, HCT-116
- Assay type: cell-based, human
- setup_conditions: Homo sapiens, HCT-116; exposure time to compound 72 h; read-out: Cancer Cell Line (IC50, nM) HCT-116
quantity_measured: IC50 (nM)
Numbers only, in nM.

Lab note: CCC(=C/[C@H](C)C/C=C/C(C)=C/[C@@H](C)C(=O)[C@@H](C)[C@H](O)[C@@H](C)C/C(C)=C/C(=O)O)/C=C/[C@@H]1OC(=O)C=C[C@@H]1C [Leptomycin B, reference compound] gave IC50 of 0.32
